# assay-system: SceCet1 (Saccharomyces cerevisiae, UniProt O13297)
# Construct: C-terminal catalytic domain (aa 241 to 539) of S. cerevisiae RTPase (SceCet1); made in house; host or cells: Escherichia coli
# Sequence (O13297 241-539): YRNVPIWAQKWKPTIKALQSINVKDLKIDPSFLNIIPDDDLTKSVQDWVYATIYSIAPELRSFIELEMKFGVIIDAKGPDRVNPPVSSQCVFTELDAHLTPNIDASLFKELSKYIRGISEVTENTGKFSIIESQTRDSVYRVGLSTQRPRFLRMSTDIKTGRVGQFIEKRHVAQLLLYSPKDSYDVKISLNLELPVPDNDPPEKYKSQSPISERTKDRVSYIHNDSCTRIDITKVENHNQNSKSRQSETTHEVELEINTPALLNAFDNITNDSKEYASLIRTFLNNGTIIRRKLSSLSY
# test-protocol: TLC assay for 32Pi release from [γ-32P]ATP, SceCet1
# Type: biochemical
# experimental-context: read-out: IC50 SceCet1; 25 nM SceCet1, 30°C
pIC50: −log10 of the molar value.
pIC50 values by entry
parameter: pIC50

[[record]]
smiles_representation = "O=C(CCO[C@@H]1O[C@H](CO)[C@@H](O)[C@H](O)[C@H]1O)c1ccc(O)cc1"
assay_system = "SceCet1 (Saccharomyces cerevisiae, UniProt O13297)"
result = 4.39

[[record]]
smiles_representation = "O=C(Oc1cc(C(=O)O[C@@H]2C[C@@](O)(C(=O)O)C[C@@H](O)[C@@H]2O)cc(O)c1O)c1cc(O)c(O)c(O)c1"
assay_system = "SceCet1 (Saccharomyces cerevisiae, UniProt O13297)"
result = "< 3.30"

[[record]]
smiles_representation = "O=C(/C=C/c1ccc(O)cc1)O[C@@H]1[C@H](O)C[C@@](O)(C(=O)O)C[C@H]1OC(=O)/C=C/c1ccc(O)cc1"
assay_system = "SceCet1 (Saccharomyces cerevisiae, UniProt O13297)"
result = "< 3.30"

[[record]]
smiles_representation = "O=C(Oc1cc(C(=O)O[C@@H]2C[C@@](O)(C(=O)O)C[C@@H](OC(=O)c3cc(O)c(O)c(O)c3)[C@@H]2O)cc(O)c1O)c1cc(O)c(O)c(O)c1"
assay_system = "SceCet1 (Saccharomyces cerevisiae, UniProt O13297)"
result = "< 3.30"


----------
# assay-system: Lef4 (Autographa californica nuclear polyhedrosis virus)
# Construct: the N-terminal RTPase domain (aa 1 to 236) of AcNPV Lef4 capping enzyme; HisSmt3 (N, cleaved yes); made in house; host or cells: Escherichia coli
# test-protocol: TLC assay for 32Pi release from [γ-32P]ATP, Lef4
# Type: biochemical, Autographa californica nucleopolyhedrovirus (AcNPV)
# experimental-context: 50 nM Lef4, 37°C; read-out: IC50 Lef4
pIC50: −log10 of the molar value.
pIC50 values by entry
parameter: pIC50

[[record]]
molecule = "O=C(/C=C/c1ccc(O)c(O)c1)OC1[C@H](OC(=O)/C=C/c2ccc(O)c(O)c2)CC(O)(C(=O)O)C[C@H]1OC(=O)/C=C/c1ccc(O)c(O)c1 (stereo in doubt) [Compound 1D, 3,4,5-Tricaffeoylquinic acid]"
assay_system = "Lef4 (Autographa californica nuclear polyhedrosis virus)"
result_number = 5.14

[[record]]
molecule = "O=C(Oc1cc(C(=O)O[C@@H]2C[C@@](O)(C(=O)O)C[C@@H](OC(=O)c3cc(O)c(O)c(O)c3)[C@@H]2O)cc(O)c1O)c1cc(O)c(O)c(O)c1 [Compound 1F, 3-galloyl,5-galloyl-galloylquinic acid]"
assay_system = "Lef4 (Autographa californica nuclear polyhedrosis virus)"
result_number = 4.48

[[record]]
molecule = "O=C(/C=C/c1ccc(O)c(O)c1)O[C@@H]1C[C@](OC(=O)/C=C/c2ccc(O)c(O)c2)(C(=O)O)C[C@@H](OC(=O)/C=C/c2ccc(O)c(O)c2)[C@H]1OC(=O)/C=C/c1ccc(O)c(O)c1 [Compound 1A, 1,3,4,5-O-tetracaffeoylquinic acid]"
assay_system = "Lef4 (Autographa californica nuclear polyhedrosis virus)"
result_number = 5.24

[[record]]
molecule = "O=C(CCO[C@@H]1O[C@H](CO)[C@@H](O)[C@H](O)[C@H]1O)c1ccc(O)cc1 [Compound 2B]"
assay_system = "Lef4 (Autographa californica nuclear polyhedrosis virus)"
result_number = 3.82

[[record]]
molecule = "O=C(/C=C/c1ccc(O)c(O)c1)O[C@@H]1C[C@](OC(=O)/C=C/c2ccc(O)c(O)c2)(C(=O)O)C[C@@H](OC(=O)/C=C/c2ccc(O)c(O)c2)[C@H]1O [Compound 1E, 1,3,5-tricaffeoylquinic acid]"
assay_system = "Lef4 (Autographa californica nuclear polyhedrosis virus)"
result_number = 5.25


----------
# assay-system: CthTTM (Acetivibrio thermocellus)
# Sequence (A3DIJ8 1-156): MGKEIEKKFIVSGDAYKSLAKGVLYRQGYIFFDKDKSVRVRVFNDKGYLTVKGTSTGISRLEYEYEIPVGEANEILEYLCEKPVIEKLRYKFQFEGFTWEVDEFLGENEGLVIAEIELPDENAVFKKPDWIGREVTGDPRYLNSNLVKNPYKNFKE
# test-protocol: TLC assay for 32Pi release from [γ-32P]ATP, CthTTM
# Assay type: biochemical, Clostridium thermocellum
# experimental-context: 500 nM CthTTM, 37°C; read-out: IC50 CthTTM
parameter: IC50 (µM)

[[record]]
compound = "O=C(/C=C/c1ccc(O)c(O)c1)O[C@@H]1C[C@](OC(=O)/C=C/c2ccc(O)c(O)c2)(C(=O)O)C[C@@H](OC(=O)/C=C/c2ccc(O)c(O)c2)[C@H]1O [Compound 1E, 1,3,5-tricaffeoylquinic acid]"
parameter = "IC50"
result_number = 33

[[record]]
compound = "O=C(O)/C=C/c1ccc(O)c(O)c1 [Compound 3B, caffeic acid]"
parameter = "IC50"
result_number = 310

[[record]]
compound = "O=C(/C=C/c1ccc(O)c(O)c1)O[C@@H]1C[C@](OC(=O)/C=C/c2ccc(O)c(O)c2)(C(=O)O)C[C@@H](OC(=O)/C=C/c2ccc(O)c(O)c2)[C@H]1OC(=O)/C=C/c1ccc(O)c(O)c1 [Compound 1A, 1,3,4,5-O-tetracaffeoylquinic acid]"
parameter = "IC50"
result_number = 11


----------
# assay-system: Lef4 (Autographa californica nuclear polyhedrosis virus, UniProt P41477)
# Construct: the N-terminal RTPase domain (aa 1 to 236) of AcNPV Lef4 capping enzyme; HisSmt3 (N, cleaved yes); made in house; host or cells: Escherichia coli
# Sequence (P41477 1-236): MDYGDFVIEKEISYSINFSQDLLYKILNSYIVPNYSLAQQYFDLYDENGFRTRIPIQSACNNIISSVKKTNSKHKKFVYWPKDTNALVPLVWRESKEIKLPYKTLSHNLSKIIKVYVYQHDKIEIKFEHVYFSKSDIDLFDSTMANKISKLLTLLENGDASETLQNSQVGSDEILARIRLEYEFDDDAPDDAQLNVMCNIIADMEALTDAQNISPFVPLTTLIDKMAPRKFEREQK
# test-protocol: TLC assay for 32Pi release from [γ-32P]ATP, Lef4;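 note: Lef4 RNA triphosphatase cleaving radiolabelled ATP over 10 min at 37°C, hydrolysis set relative to inhibitor-free 5% DMSO controls, comparisons made against TbCet1 tested the same way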
# Assay type: biochemical, Autographa californica nucleopolyhedrovirus (AcNPV)
# experimental-context: 50 nM Lef4, 37°C; read-out: IC50 Lef4
pIC50: −log10 of the molar value.
parameter: pIC50

[[record]]
molecule = "O=C(Oc1cc(C(=O)O[C@@H]2C[C@@](O)(C(=O)O)C[C@@H](O)[C@@H]2O)cc(O)c1O)c1cc(O)c(O)c(O)c1 [Compound 1C, 5-galloyl-galloylquinic acid]"
parameter = "pIC50"
result = 4.12

[[record]]
molecule = "COc1cc(/C=C/C(=O)O[C@@H]2C[C@](O)(C(=O)O)C[C@@H](O)[C@H]2O)ccc1O [Compound 1L, 5-feruoylquinic acid]"
parameter = "pIC50"
result = "< 3.30"

[[record]]
molecule = "O=C(O[C@@H]1C[C@@](O)(C(=O)O)C[C@@H](O)[C@@H]1O)c1cc(O)c(O)c(O)c1 [Compound 1O, 5-galloylquinic acid]"
parameter = "pIC50"
result = "< 3.30"


----------
# assay-system: SceCet1 (Saccharomyces cerevisiae)
# Construct: C-terminal catalytic domain (aa 241 to 539) of S. cerevisiae RTPase (SceCet1); made in house; host or cells: Escherichia coli
# test-protocol: TLC assay for 32Pi release from [γ-32P]ATP, SceCet1
# Type: biochemical
# experimental-context: ratio in parentheses
For each record, check the reported IC50/IC50 TbCet1, SceCet1: if it is below 20 write Fulfilled, else write Not fulfilled.

[[record]]
compound = "O=C(/C=C/c1ccc(O)c(O)c1)O[C@@H]1C[C@](OC(=O)/C=C/c2ccc(O)c(O)c2)(C(=O)O)C[C@@H](OC(=O)/C=C/c2ccc(O)c(O)c2)[C@H]1O"
class_assignment = "Not fulfilled"

[[record]]
compound = "O=C(CCO[C@@H]1O[C@H](CO)[C@@H](O)[C@H](O)[C@H]1O)c1ccc(O)cc1"
class_assignment = "Not fulfilled"

[[record]]
compound = "O=C(/C=C/c1ccc(O)c(O)c1)O[C@@H]1C[C@](OC(=O)/C=C/c2ccc(O)c(O)c2)(C(=O)O)C[C@@H](OC(=O)/C=C/c2ccc(O)c(O)c2)[C@H]1OC(=O)/C=C/c1ccc(O)c(O)c1"
class_assignment = "Not fulfilled"

[[record]]
compound = "O=C(/C=C/c1ccc(O)c(O)c1)OC1[C@H](OC(=O)/C=C/c2ccc(O)c(O)c2)CC(O)(C(=O)O)C[C@H]1OC(=O)/C=C/c1ccc(O)c(O)c1 (stereo in doubt)"
class_assignment = "Not fulfilled"

[[record]]
compound = "CC(=O)O[C@@]12C[C@@H](OC(=O)/C=C/c3ccc(O)c(O)c3)[C@@H](OC(=O)/C=C/c3ccc(O)c(O)c3)[C@@H](C1)OC2=O [Compound 6C, 1-acetyl,4,5-dicaffeoylquinide]"
class_assignment = "Fulfilled"

[[record]]
compound = "O=C(/C=C/c1ccc(O)c(O)c1)O[C@@H]1[C@H](OC(=O)/C=C/c2ccc(O)c(O)c2)C[C@]2(OC(=O)/C=C/c3ccc(O)c(O)c3)C[C@H]1OC2=O [Compound 6A, 1,4,5-tricaffeoylquinide]"
class_assignment = "Fulfilled"

[[record]]
compound = "O=C(O)C1OC(Oc2c(-c3ccc(O)c(O)c3)oc3cc(O)cc(O)c3c2=O)C(O)C(O)C1O (stereo not drawn)"
class_assignment = "Not fulfilled"

[[record]]
compound = "O=C(O[C@@H]1C[C@@](O)(C(=O)O)C[C@@H](O)[C@@H]1O)c1cc(O)c(O)c(O)c1"
class_assignment = "Fulfilled"

[[record]]
compound = "Oc1cc(O)c2c(c1)O[C@H](c1ccc(O)c(O)c1)[C@H](O)C2 [Compound 4C, epicatechin]"
class_assignment = "Not fulfilled"

